- assay.target: FABP7 (Homo sapiens)
- Sequence (O15540 2-132): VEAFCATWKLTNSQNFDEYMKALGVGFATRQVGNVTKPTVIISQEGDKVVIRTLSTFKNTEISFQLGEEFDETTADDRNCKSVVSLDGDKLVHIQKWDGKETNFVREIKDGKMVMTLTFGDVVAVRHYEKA
experimental.readout: Kd (µM)
Write the value in µM as a bare number.

Ask: Value wanted: Kd (FABP7 (Homo sapiens)) of entry CC(C)CCC[C@@H](C)[C@H]1CC[C@H]2[C@@H]3CC=C4C[C@@H](O)CC[C@]4(C)[C@H]3CC[C@]12C [cholesterol]
Result: 3.04
